Listed next: entries and their corresponding EC50.
- target.or.test.system: hSTING (Homo sapiens, UniProt Q86WV6, G230A/H232R/R293Q/R71H)
- Sequence (Q86WV6 whole entry R71H/G230A/H232R/R293Q): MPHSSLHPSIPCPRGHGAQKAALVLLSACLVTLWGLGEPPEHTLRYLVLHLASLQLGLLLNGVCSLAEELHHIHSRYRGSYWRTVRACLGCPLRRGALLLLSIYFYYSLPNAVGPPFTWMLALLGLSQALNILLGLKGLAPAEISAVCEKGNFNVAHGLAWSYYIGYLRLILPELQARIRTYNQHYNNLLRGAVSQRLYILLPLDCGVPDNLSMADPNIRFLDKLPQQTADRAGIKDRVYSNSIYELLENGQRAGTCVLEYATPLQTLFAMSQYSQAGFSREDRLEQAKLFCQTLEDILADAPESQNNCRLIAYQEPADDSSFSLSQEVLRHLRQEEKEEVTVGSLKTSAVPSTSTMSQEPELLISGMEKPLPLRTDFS
- test.protocol: STING reporter assay: THP1-Dual KO-IFNAR2 cells stimulated with 2′3′cGAMP, luciferase reporter activity
- assay.conditions: 15 μM 2′3′cGAMP transfected with Lipofectamine 2000, 24 h, luciferase reporter (QUANTI-Luc)

Some solved entries appear below for comparison.
>  <substance.smiles>
O=C(Nc1c[nH]c2ccccc12)c1cncn1Cc1ccc(C(F)(F)F)c(Cl)c1

>  <reported.measurement>
1 to 5 µM

$$$$
>  <substance.smiles>
O=C(Nc1c[nH]c2cc(F)ccc12)c1cnn(Cc2ccc(C(F)(F)F)cc2)c1

>  <reported.measurement>
0.2 to 1 µM

$$$$
>  <substance.smiles>
CC(C)(C)OC(=O)N1CCC(n2cc(C(=O)Nc3c[nH]c4cc(F)c(F)cc34)nn2)CC1

>  <reported.measurement>
1 to 5 µM

$$$$

Next compound, EC50 to be filled in.
Which EC50 reading was recorded for the compound O=C(Nc1c[nH]c2c(F)cncc12)c1ccn(Cc2ccc(C(F)(F)F)cc2)n1 ?
1 to 5 µM

// data source = patent US20230271941A1
